B1: tRNA (parent)
chain: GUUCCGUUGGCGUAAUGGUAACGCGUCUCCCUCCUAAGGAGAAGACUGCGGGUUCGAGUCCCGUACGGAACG

Variants of: B1
Experiment: yeast fitness relative to wild type (ratio to wild type); higher = fitter; tRNA-Arg(CCU), competitive growth, 37 C, YPD
Fewer inactive variants are shown than the library holds.
parameter.measured: yeast fitness
Would you mind answering with just the numeric figure?

Known yeast fitness results, listed for orientation:
C22G C24A G38A G67A ... 0.531
G58C G67A ... 0.807
C5U A37G ... 0.795

Query: For the variant A21C U35C , report yeast fitness.
Reply: 0.856

Query: For the variant A36C U53C G56U , report yeast fitness.
Reply: 0.603

Query: For the variant A57G A69G A70G , report yeast fitness.
Reply: 0.704

Query: For the variant U8G U26A C66U G67C , report yeast fitness.
Reply: 0.847

Query: For the variant G38C G41C A42G A65G , report yeast fitness.
Reply: 0.503

Query: For the variant C4A U16G C30A , report yeast fitness.
Reply: 0.62

Query: For the variant G12A U19C A21U , report yeast fitness.
Reply: 0.905

Query: For the variant A40C A70U , report yeast fitness.
Reply: 0.797

Query: For the variant C31A C33A , report yeast fitness.
Reply: 0.509

Query: For the variant A21G G68C , report yeast fitness.
Reply: 0.949

Query: For the variant C5A U26A G56A A65G , report yeast fitness.
Reply: 0.565

Query: For the variant U7G U13A , report yeast fitness.
Reply: 0.898
